Recorded apparent Kd values for a group of sequences are listed next.
Tested on: MS2 coat protein
Run description: apparent Kd, MS2 coat protein; higher = weaker binding; RNA-MaP array
Condition notes: designed as: OFF switch for flavin mononucleotide; no ligand
Endpoint label: apparent Kd (nM)

Seq string	Endpoint label	Value unit	Quantitative readout
GGUAUGUCAGGAUAUUAAUGGUCAGUAACGGAACAGAGGAGUAAGAAGGGACAUGAGGAUCACCCAUGUAUUCG	apparent Kd	nM	17.1
AAAAGCAGGGUCAGGAUAUAGGGUUCACUGUUGGCCUAGAAGGGACAUGAGGAUCACCCAUGUAUAGUAGUGGG	apparent Kd	nM	347
CGGUGGUGAGGAUAUCAAAUGUGGAAGGAGAAGACACCCAGUGAGAAGGCACAUGAGGAUCACCCAUGUACAGC	apparent Kd	nM	10.7
UUCGGCCUUUAGAAGGAUUGUAUACAUGAGGAUCACCCAUGUUGGUGAUACAGAUAUAUUCGGCAAUAGGAUAUAAGCAGGUGA	apparent Kd	nM	826
CUGAACUAAGGAUAUACGGCCCUCAAUUAUAAUUCUGUGAAACAUGAGGAUCACCCAUGUAGAAGGUAGUCGAC	apparent Kd	nM	14.1
UUCCUCAGCAGGGUAACAUGAGGAUCACCCAUGUCGGAGAGCGAGGAUAUCUCGUGAAGCUCAUAAGAGAAGGCGCACAACUAG	apparent Kd	nM	18.2
GUCAUGUCAGGAUAUCGUUCGGAGUGCGAUUCCCUCUGCCGCGAGAAGGGACAUGAGGAUCACCCAUGUUCGAA	apparent Kd	nM	16.8
CUAAUGGAAGGAUAUACAUGAGGAUCACCCAUGUUUAAGUGAUUAGCGAAUUGUCAACGUAGAAGGUCCAAUUA	apparent Kd	nM	42.6
ACACAGUCAGGAUAUACACAAAAUCUCAGUCUAGUAAGUAAACAUGAGGAUCACCCAUGUAGAAGGGACUUUAA	apparent Kd	nM	6.95
AUAUGAGGAGUGAGGAUAUGAAUCUAACAGAAUAAUCAGAAGGCACAUGAGGAUCACCCAUGUAAAUAUAUGGU	apparent Kd	nM	10.6

These measurements were taken from the EternaBench riboswitch data.
